Experiment: chemical genetic growth profiling, strain panel (AID 1159580);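 note: tested at 20 µM; growth read once vehicle control cultures reached saturation at 30 °C; 1 = growth at the plate median or of vehicle wells; lower values mean less growth of the strain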
Conditions: S. cerevisiae deletion strains, growth OD, locus YDL185W, strain tfp1, active compounds read low
The campaign covered roughly 5,500 compounds. About 2,000 (36%) were called active. Not shown: some 18% with an inconclusive outcome. This is one part of the list.
I'd appreciate it if you marked entries 1 when normalized growth is lower than 1 and 0 when it is not.

Below, 4 compounds whose answers are already recorded.
compound	assigned_class
COc1ccc2ccc(=O)oc2c1	0
CC[n+]1c(-c2ccccc2)c2cc(N)ccc2c2ccc(N)cc21	1
C=C(C)[C@H]1COc2cc3oc(=O)ccc3cc2O1	1
CCCC(C)(COC(N)=O)COC(=O)NC(C)C (centres undefined)	1

Report whether reported normalized growth is lower than 1 (strictly) for NS(=O)(=O)c1cc(C2(O)NC(=O)c3ccccc32)ccc1Cl (centres undefined)
0

Threshold test, normalized growth < 1: `COc1c(C(C)C)oc2cc3oc(=O)ccc3cc12`
1

Given the entry `COc1ccc(-c2oc3c(CC=C(C)C)c(O[C@@H]4O[C@H](CO)[C@@H](O)[C@H](O)[C@H]4O)cc(O)c3c(=O)c2O[C@@H]2O[C@@H](C)[C@H](O)[C@@H](O)[C@H]2O)cc1` , would its reported normalized growth be below 1?
1

Decide: normalized growth of `CCCCCc1c2c(cc(O)c1C(=O)O)OC(=O)c1c(cc(OC)cc1C(=O)CCCC)O2` strictly below 1?
1

Below 1 on normalized growth? Entry `COc1cc2occc2c2oc(=O)ccc12`
1

###

Experiment: chemical genetic growth profiling, strain panel (AID 1159580);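 note: tested at 20 µM; growth read once vehicle control cultures reached saturation at 30 °C; 1 = growth at the plate median or of vehicle wells; lower values mean less growth of the strain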
Conditions: S. cerevisiae deletion strains, growth OD, locus YJL134W, strain LCB3
Among all 5,500 compounds or so, about 2,000 (36%) were called active. Inconclusive results (about 18%) are left out. Cut-off read from the data, not from the text of the source: active = normalized growth mostly below about 0.91 (no sharp cut-off); inconclusive = no clear call, values can overlap the other calls; inactive = mostly above about 0.92. The list shows a part of the results.
Field 'call' accepts 1.0 for active, 0.0 for inactive

Completed entries (count: 5):
> print(dat)
                                   compound  assigned.class
1  CC1CCC2(OC1)OC1CC3C4CC[C@H]5C[C@@H](O)CC[C@]5(C)C4CC(=O)[C@]3(C)C1C2C (some centres undefined)             0.0
2  C[C@@H]1CC[C@@]2(OC1)OC1CC3C4CC=C5C[C@@H](O)CC[C@]5(C)C4CC[C@]3(C)C1[C@@H]2C (some centres undefined)             0.0
3  COC(=O)[C@@]1(C)CCC[C@]2(C)c3ccc(O)c(C(C)C)c3CCC12 (some centres undefined)             1.0
4          CN(C)c1nc(N)c(C(=O)N=C(N)N)nc1Cl             0.0
5  CC(=O)Oc1ccc2c(c1C(C)C)CCC1C(C)(C)CCC[C@]21C (some centres undefined)             0.0

Which outcome was entered for the compound COC(=O)[C@]1(C)CCC[C@]2(C)c3ccc(C(C)C)cc3C(=O)CC12 (some centres undefined) in this test?
0.0

I'd appreciate the recorded outcome for `O=C(O[C@@H]1Cc2c(O)cc(O)cc2O[C@@H]1c1cc(O)c(=O)c2c(O)c(O)cc([C@H]3Oc4cc(O)cc(O)c4C[C@H]3O)c2c1)c1cc(O)c(O)c(O)c1` from this test.
1.0

For `NC(N)=NC(=O)c1nc(Cl)c(N2CCCCCC2)nc1N` , what call appears in the results of this test?
0.0

// param item: `CC(=O)OCC1=C(C(=O)O)N2C(=O)[C@@H](NC(=O)Cc3cccs3)[C@H]2SC1` ; yields the recorded call
0.0

Taken from PubChem BioAssay AID1159580.
